Assay Context: in water, 318.15 K
Assay Metric: solubility (mole fraction)
Reply: number alone, nothing else.

Answer with reported solubility (mole fraction) of NCCS(=O)(=O)O 0.0264

====

Assay Context: in water, 298.15 K
Assay Metric: solubility (mole fraction)
Reply: number alone, nothing else.

Answer with reported solubility (mole fraction) of NCCS(=O)(=O)O 0.0141

====

Assay Context: in water, 303.15 K
Assay Metric: solubility (mole fraction)
Reply: number alone, nothing else.

Answer with reported solubility (mole fraction) of NCCS(=O)(=O)O 0.0172

====

Assay Context: in water, 283.15 K
Assay Metric: solubility (mole fraction)
Reply: number alone, nothing else.

Answer with reported solubility (mole fraction) of NCCS(=O)(=O)O 0.00809

====

Assay Context: in water, 278.15 K
Assay Metric: solubility (mole fraction)
Reply: number alone, nothing else.

Answer with reported solubility (mole fraction) of NCCS(=O)(=O)O 0.00667

====

Assay Context: in water, 323.15 K
Assay Metric: solubility (mole fraction)

Answer with reported solubility (mole fraction) of NCCS(=O)(=O)O 0.0318

Data origin: BigSolDB 2.1
